test system: Huh7 cells
metric: CC50 (µM)
Give the quantity in µM, number only.

Provide the documented CC50 with Huh7 cells as the system for O=c1nc(NO)ccn1[C@@H]1O[C@H](CO)[C@@H](O)[C@H]1O 22

====

tested on: Human skin fibroblasts
metric: CC50 (µM)
Answer format: numeric, µM implied, no suffix.

Data request, read-out CC50, for O=c1nc(NO)ccn1[C@@H]1O[C@H](CO)[C@@H](O)[C@H]1O 140

====

tested on: RRV; assay: microbe, parasite or virus in culture; assay type: cell-based; settings: Ross River virus, Skin fibroblast, 72 h, read-out: EC50 RRV
metric: EC50 (µM)
The reply should contain only the number, in µM.

Report EC50 for CC(C)OC(=O)[C@H](C)N[P@](=O)(OC[C@H]1O[C@@H](n2ccc(=O)[nH]c2=O)[C@](C)(F)[C@@H]1O)Oc1ccccc1 please. 20

====

EC50 reference
system: VEEV TC83; experiment: microbe, parasite or virus in culture; format: cell-based, Venezuelan Equine Encephalitis virus; settings: Venezuelan equine encephalitis virus, Huh-7, 72 h, read-out: EC50 VEEV TC83

| smiles | EC50 |
| --- | --- |
| CC(C)OC(=O)[C@H](C)N[P@](=O)(OC[C@H]1O[C@@H](n2ccc(=O)[nH]c2=O)[C@](C)(F)[C@@H]1O)Oc1ccccc1 | > 50 µM |

Kindly review the next compound as well.
Requested field: EC50. Item: NC(=O)c1nc(F)c[nH]c1=O 112 µM

====

tested on: Vero cells
metric: CC50

# get_value(readout= CC50, system= Vero cells) for O=c1nc(NO)ccn1[C@@H]1O[C@H](CO)[C@@H](O)[C@H]1O > 200 µM

====

system: CHIKV; assay: CPE reduction assay, CHIKV in skin fibroblasts; type: cell-based, chikungunya virus; conditions: Chikungunya virus, Skin fibroblast, 72 h, read-out: EC50 CHIKV
Below, each of the molecules is paired with its reported EC50 value.
Value expressed in µM; do not type the unit.

| smiles | metric | testResult |
| --- | --- | --- |
| NC(=O)c1nc(F)c[nH]c1=O | EC50 | 143 |

If you can, please state the reported EC50 value of CC(C)OC(=O)[C@H](C)N[P@](=O)(OC[C@H]1O[C@@H](n2ccc(=O)[nH]c2=O)[C@](C)(F)[C@@H]1O)Oc1ccccc1 . 15

====

experiment: in vitro; settings: human
metric: CC50 (µM)
Report the value in µM with no unit label.

Value lookup for CC50; key = CC(C)OC(=O)[C@H](C)N[P@](=O)(OC[C@H]1O[C@@H](n2ccc(=O)[nH]c2=O)[C@](C)(F)[C@@H]1O)Oc1ccccc1 271

====

assay: in vitro; conditions: African green monkey
Each record here notes measured CC50.

| smiles | metric | testResult |
| --- | --- | --- |
| CC(C)OC(=O)[C@H](C)N[P@](=O)(OC[C@H]1O[C@@H](n2ccc(=O)[nH]c2=O)[C@](C)(F)[C@@H]1O)Oc1ccccc1 | CC50 | 350 µM |

# lookup: CC50 of NC(=O)c1nc(F)c[nH]c1=O 374 µM

====

system: CHIKV; assay: CPE reduction assay, CHIKV in Vero cells; assay type: cell-based, chikungunya virus; details: read-out: EC50 CHIKV; Vero cells, 72 h pi, MTS
metric: pEC50
API: returns pEC50 as number; meaning -log10 of concentration in mol/L.

Please look up its pEC50: O=c1nc(NO)ccn1[C@@H]1O[C@H](CO)[C@@H](O)[C@H]1O 6.15

====

Reported EC50 by item:
tested on: SFV; test: microbe, parasite or virus in culture; type: cell-based; details: Semliki Forest virus, Skin fibroblast, 72 h, read-out: EC50 SFV
Could you give me the number in µM? Just the number is fine.

| smiles | metric | testResult |
| --- | --- | --- |
| CC(C)OC(=O)[C@H](C)N[P@](=O)(OC[C@H]1O[C@@H](n2ccc(=O)[nH]c2=O)[C@](C)(F)[C@@H]1O)Oc1ccccc1 | EC50 | 17 |

Please examine the following record next.
GET /values?readout=EC50&item= NC(=O)c1nc(F)c[nH]c1=O 382
